All figures here come from paper PMC4132743.

- experimental target: T1, DnaT (wt, full length) (Escherichia coli K12, UniProt P0A8J2 1-179)
- T1 sequence: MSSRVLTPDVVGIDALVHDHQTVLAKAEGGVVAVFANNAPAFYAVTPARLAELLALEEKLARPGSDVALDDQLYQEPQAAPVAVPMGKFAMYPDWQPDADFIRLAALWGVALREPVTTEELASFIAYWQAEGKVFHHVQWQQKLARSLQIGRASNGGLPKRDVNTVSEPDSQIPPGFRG
- assay comment: fluorescence polarization; apparent; Hill h=3.6±0.3; Buffer A: 20 mM Tris-HCl pH 7.5, 40 mM NaCl, 5% v/v glycerol, 20 C; FPA 200 nM 5'-FAM DNA, Hill fit; EMSA 30 min at 20 C, gels in 0.5x TBE at 4 C
- conditions used: protein: recombinant; tags: His-MBP removed by TEV; label: 5'-FAM
recorded metric: Kd (µM)
Dear colleague, please return just the value in µM, with no unit written.

[ask] Data request, read-out Kd, for TTTTTTTTTTTTTTTTTTTTTTTTTTTTTT (ssDNA) [5F-dT30]
[reply] 12.9
